Target: Human Thrombin (Homo sapiens)
Details: fifth round selected peptides; 1 hour incubation +/- Human Thrombin 0.1 unit/ml; anti-FLAG ELISA OD450
Description: The values represent ((OD450 nm reading after incubation with thrombin)/(OD450 nm reading after incubation without thrombin)) expressed as a percentage. 100% indicates complete protection from thrombin cleavage. Recovered DNA from the fifth round of selection was amplified using PCR, purified and digested with NotI and NcoI. […] The assay was developed with SureBlue TMB peroxidase substrate (Insight Biotechnology, Middlesex, UK) and read at 450 nm.
MEASUREMENT_NAME: Thrombin resistant

>>> print(df.to_string())
           primary_sequence  endpoint_value
0  ITPPDNSHTPDE [SEQID 027]       resistant
1  HCVHEPQTKHES [SEQID 029]       resistant
2  PSCPNKQDPTHD [SEQID 030]       resistant
3  HGHSPSDNANTR [SEQID 028]       resistant

Taken from patent US20110189164A1.
